Hello, the source for this data is paper PMC6556873, in case you need it.

# method_notes: in vitro
# Design: species or system HB2, CCD841
# experimental_context: human, hek293 cells
value_type: viability at 48 h, 10 µM (%)
One number for each entry, in %.

Some solved entries appear below for comparison.
O=C(CCl)NC1CCOCC1 :: 110
O=C(CCl)Nc1cccc(F)c1 :: 5.9
C=CC(=O)N1CCCCC1c1ncon1 (centres unmarked) :: 91.3
CC(C)(C)c1ccc(NC(=O)CCl)cc1 :: 10.3
CN(Cc1ccsc1)C(=O)CCl :: 34

Please give viability at 48 h, 10 µM, item by item, for the list that follows.
1. C=CC(=O)NCC1CCOC2(CCC2)C1 (centres unmarked)
2. Cc1ccc(NC(=O)NC(=O)CCl)cc1C
3. O=C(CCl)Nc1nc(-c2c[nH]c3ccccc23)cs1

-- reply
1. 90.4
2. 63.3
3. 6.5

Please give viability at 48 h, 10 µM, item by item, for the list that follows.
1. Cc1ccc(NC(=O)CCl)c(F)c1
2. O=C(CCl)Nc1nc2c(F)c(F)c(F)cc2s1

-- reply
29
83.1

Please give viability at 48 h, 10 µM, item by item, for the list that follows.
1. C=CC(=O)N1CCCC(NS(C)(=O)=O)C1 (centres unmarked)
2. O=C(CCl)N1CCCC1c1ccc2c(c1)OCCCO2 (centres unmarked)
3. O=C(CCl)N1CCC(C(=O)N2CCCCC2)CC1
4. O=C(CCl)N1CCN(S(=O)(=O)c2ccc3c(c2)CCC3)CC1

-- reply
1: 106; 2: 3.8; 3: 76.6; 4: 2.8
